Give measured kon for each item. Keep answers brief.
- EXPERIMENTAL SYSTEM: T1, SP1 peptide (synthetic peptide with the sequence of the SP1 region of ANGPTL3) (mouse and human (the sequence is the …))
- T1 construct: also called ANGPTL3 SP1; hANGPTL3 SP1 peptide
- T1 peptide: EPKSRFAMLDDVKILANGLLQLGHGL
- PROCEDURE DETAILS: SPR (BIACORE 3000), antibody captured on anti-mouse IgG Fc chip, SP1 peptide injected, 1:1 model

Request: Answer with reported kon of antibody 5.35 (antibody, IgG2a, V domains shown, Biotinylated in the alanine-scanning ELISA) VH: QVTLKESGPGILHPSQTLTLTCSFSGFSLNTFGLAVGWIRQPSGKGLEWLGHIWWDDHKYYNGVLKSRLTISKDSSKKQVFLRIANVDTADTARYYCARLETGTGFAYWGQGTLVTVSA VL: DIVLTQSTPSVPVTPGESVSISCRSSKSLLDSNGITYLYWFLQRPGQSPQLLIYRMSKLASGVPDRFSGSGSETAFTLRISRVEAEDVGVYYCMQPLEYPFTFGAGTKLELNG
Response: 835000 M⁻¹ s⁻¹

Request: Tell me its kon given antibody 4.7.1 (antibody, IgG2b, V domains shown, Biotinylated in the alanine-scanning ELISA) VH: EVQLQQSGPELVKPGASVKMSCKASGYTFTSYVMHWVKQKPGQGLEWIGYFNPYNDGTKYNEKFKGKATLTSDKSSSTAYMELSSLTSEDSAVYYCAREGDYYGYFDYWGQGTTLTVSS VL: DIQMTQTTSSLSASLGDRVTISCRASQDISNFLNWYQQKPDGTVKLLIYYTSRLHSGVPSRFSGSGSGTDYSLTISNLEQEDIATYFCQQGNTLPPTFGGGTKLEIKR as the entry.
Response: 209000 M⁻¹ s⁻¹

Request: Write down kon measured for item antibody 5.50 (antibody, IgG2b, V domains shown, Biotinylated in the alanine-scanning ELISA) VH: EVQLQQSGPELVKPGASVKISCKASGFTFTDYYMNWVKQSHGESLEWIGDINPNNGGTIYNQKFRGKATLTVDKSSSTAYMELRSLTSEDSAVYYCVRLPWYFDVWGTGTTVTVSS VL: DVLMTQTPLSLPVSLGDQASISCRSSQSILHSNGNTYLEWFLQKPGQSPKLLIYKVSNRFSGVPDRFSGSGSGTDFTLKISRVEAEDLGVYYCFQGSHVPYTFGGGTKLEIKR
Response: 1.08e+06 M⁻¹ s⁻¹

Request: Annotate the binder antibody 4.9.1 (antibody, IgG1, V domains shown, Biotinylated in the alanine-scanning ELISA) VH: EVQLQQSGPELVKPGASVKMSCKASGYTFTSYVMHWVKQKPGQGLEWIGYINPYNDGTKYNENFKGKATLTSDKSSSTAYMEFSSLTSEDSAVYYCAREGDYYGYFDYWGQGTTLTVSS VL: DIQMTQTTSSLSASLGDRVTISCRASQDIRNYLNWYQQKPDGTVKLLIYYTSRLHSGVPSRFSGSGSGTDYSLTISNLEQEDIATYFCQQGNTLPPTFGGGTKLEIKR with its measured kon.
Response: 169000 M⁻¹ s⁻¹

Reference source for all entries: patent US20110243948A1
